Molecular target: human ether-à-go-go-related gene (hERG) potassium channel (human)
Experiment: primary screen, population patch clamp on CHO cells stably expressing hERG; higher = less effect of the substance
Among all 310,000 compounds or so, about 14,000 (4.5%) showed an effect of 50% or more. The effect is printed as a negative number. The entries come from a sample that favours strong results as a whole.
Record YES whenever hERG current change (%, negative = inhibition) at 10uM is at -20% or higher; record NO when lower.

compound	tgt	answer label
CCCCCNCc1ccc(OCc2ccc(Cl)nc2)c(OC)c1	human ether-à-go-go-related gene (hERG) potassium channel (human)	NO
COc1ccc(N2CCC(CNC(=O)Nc3ccc(Cl)cc3)C2)cc1 (centres unmarked)	human ether-à-go-go-related gene (hERG) potassium channel (human)	YES
COc1ccc(Cl)cc1NC(=O)NCC1CCN(Cc2ccccc2F)CC1	human ether-à-go-go-related gene (hERG) potassium channel (human)	NO
CCCN(CCC)S(=O)(=O)c1ccc(N2CCCC2=O)c([N+](=O)[O-])c1	human ether-à-go-go-related gene (hERG) potassium channel (human)	YES

# next compound below
Qu. Could you please find out whether COc1ccc(Cl)cc1NC(=O)NCC1CCN(C(=O)OC(C)(C)C)CC1 has hERG current change (%, negative = inhibition) at 10uM that meets -20% or exceeds it?
Ans. YES

###

Biological target: human ether-à-go-go-related gene (hERG) potassium channel (human);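 further: peak tail current of the secondary pulse compared with the same well before compound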
Test: primary screen, population patch clamp on CHO cells stably expressing hERG; higher = less effect of the substance
In all, about 310,000 compounds went through this assay and about 14,000 (4.5%) showed an effect of 50% or more. The effect is printed as a negative number. The list comes from a sample in which strong results are over-represented; it also holds close analogues and randomly drawn compounds.
Reported hERG current change (%, negative = inhibition) at 10uM values are given for each entry in this list.
Numbers only here, please. The scale is %.

Worked set:
compound	units label	observed value
Cc1csc(SCC(=O)Nc2sccc2C#N)n1	%	-0.612
O=C(O)CCCCCNC(=O)c1ccccc1	%	8.89
Cc1ccc(-c2csc(NC(=O)c3ccc(Br)cc3)c2C(=O)O)cc1	%	46.9
CC(C)CN1CCC(C(=O)NCC2CCCO2)CC1.O=C(O)C(=O)O (stereo not drawn)	%	-3.21
COc1ccc(C(=O)C[n+]2cccc3cc(OC)ccc32)cc1.[Br-]	%	6.04

// hERG current change (%, negative = inhibition) at 10uM lookup, compound = O=C(CN1CCN(c2ncc(C(F)(F)F)cc2Cl)CC1)Nc1ccc2c(c1)OCO2 , result: -37.7

###

Target: human ether-à-go-go-related gene (hERG) potassium channel (human, UniProt Q12809);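 further: peak tail current of the secondary pulse compared with the same well before compound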
Sequence (Q12809 whole entry, looked up): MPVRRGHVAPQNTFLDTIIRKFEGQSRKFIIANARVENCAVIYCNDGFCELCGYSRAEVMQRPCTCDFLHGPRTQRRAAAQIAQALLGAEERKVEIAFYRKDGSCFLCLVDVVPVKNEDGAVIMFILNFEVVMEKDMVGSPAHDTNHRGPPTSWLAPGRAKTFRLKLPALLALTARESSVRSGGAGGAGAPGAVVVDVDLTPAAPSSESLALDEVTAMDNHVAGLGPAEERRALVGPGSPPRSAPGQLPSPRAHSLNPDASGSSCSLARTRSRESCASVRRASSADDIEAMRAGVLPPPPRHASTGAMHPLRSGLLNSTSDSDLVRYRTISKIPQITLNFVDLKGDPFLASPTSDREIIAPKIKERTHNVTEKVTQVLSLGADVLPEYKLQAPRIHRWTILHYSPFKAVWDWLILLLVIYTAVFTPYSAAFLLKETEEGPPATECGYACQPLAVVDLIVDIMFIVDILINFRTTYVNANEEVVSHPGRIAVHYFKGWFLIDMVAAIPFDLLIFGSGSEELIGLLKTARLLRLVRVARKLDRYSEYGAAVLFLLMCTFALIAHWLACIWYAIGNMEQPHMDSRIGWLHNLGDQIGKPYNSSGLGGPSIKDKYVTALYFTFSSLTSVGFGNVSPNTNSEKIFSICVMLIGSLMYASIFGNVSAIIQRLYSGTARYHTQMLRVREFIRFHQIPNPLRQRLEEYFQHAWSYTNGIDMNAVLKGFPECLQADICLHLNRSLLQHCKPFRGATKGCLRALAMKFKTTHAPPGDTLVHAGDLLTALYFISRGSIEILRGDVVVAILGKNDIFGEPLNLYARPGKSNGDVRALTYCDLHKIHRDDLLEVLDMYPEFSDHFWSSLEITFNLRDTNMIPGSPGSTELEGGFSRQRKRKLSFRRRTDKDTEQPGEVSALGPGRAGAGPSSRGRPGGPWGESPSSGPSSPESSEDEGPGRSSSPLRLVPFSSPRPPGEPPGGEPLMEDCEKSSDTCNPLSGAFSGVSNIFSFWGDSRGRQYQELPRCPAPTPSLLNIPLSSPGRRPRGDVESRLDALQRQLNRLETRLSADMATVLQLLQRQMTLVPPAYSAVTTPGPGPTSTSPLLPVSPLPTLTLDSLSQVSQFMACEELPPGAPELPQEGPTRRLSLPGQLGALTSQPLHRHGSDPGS
Assay: primary screen, population patch clamp on CHO cells stably expressing hERG; higher = less effect of the substance
The whole screen tested about 310,000 compounds, of which about 14,000 (4.5%) showed an effect of 50% or more. Effects have a minus sign here. Shown is part of a subset that was picked to be rich in strong results.
Reported hERG current change (%, negative = inhibition) at 10uM values are given for each entry in this list.
Numbers only here, please. The scale is %.

Worked set:
compound	observed value
Cn1cccc1-c1nc2ccccc2n1Cc1ccccc1	-29.1
COC(=O)c1ccc(COc2ccc3ccc(=O)oc3c2)o1	8.66
COc1ccc(C2CC(c3cccs3)=NN2C(=O)CCC(=O)O)cc1 (stereo not drawn)	10.5
Cc1ncc2c(c1OC(=O)c1ccccc1)COC(C)(C)OC2	-6.46
CCn1c(SCc2cccc(C)c2)nnc1-c1ccccc1	-32.9

// hERG current change (%, negative = inhibition) at 10uM lookup, compound = CC(CCN1CCC(n2nccc2NC(=O)c2ccccc2Cl)CC1)c1ccccc1 (stereo not drawn) , result: -82.7

// hERG current change (%, negative = inhibition) at 10uM lookup, compound = Br.CC(C)CC(N)C(=O)OCc1ccc([N+](=O)[O-])cc1 (stereo not drawn) , result: 7.33

// hERG current change (%, negative = inhibition) at 10uM lookup, compound = CS(=O)(=O)Nc1nc2n(n1)C(c1ccc(F)cc1)CC(c1ccccc1)N2 (stereo not drawn) , result: -4.13

// hERG current change (%, negative = inhibition) at 10uM lookup, compound = O=C(CN1CCOCC1)N1N=C(c2cccs2)CC1c1cccs1 (stereo not drawn) , result: 18.9

// hERG current change (%, negative = inhibition) at 10uM lookup, compound = COc1ccc(C2CC(c3ccc(OC)cc3)n3nc(NC(=O)c4cccs4)nc3N2)cc1 (stereo not drawn) , result: -13.9

// hERG current change (%, negative = inhibition) at 10uM lookup, compound = CCn1c(SCc2ccc(C(=O)Nc3nccs3)cc2)nnc1-c1ccc(NC(C)=O)cc1 , result: 1.21

// hERG current change (%, negative = inhibition) at 10uM lookup, compound = CCC(C)(C)NC(=O)CN(Cc1ccccc1Cl)C(=O)CCC(=O)Nc1cc(C)ccn1 , result: -4.7

###

Target: human ether-à-go-go-related gene (hERG) potassium channel (human);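 further: peak tail current of the secondary pulse compared with the same well before compound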
Assay: primary screen, population patch clamp on CHO cells stably expressing hERG; higher = less effect of the substance
Screen size: about 310,000 compounds; about 14,000 (4.5%) showed an effect of 50% or more. The effect is printed as a negative number. The list comes from a sample in which strong results are over-represented; it also holds close analogues and randomly drawn compounds.
measure: hERG current change (%, negative = inhibition) at 10uM (%)
Numbers only here, please. The scale is %.

Worked set:
molecule	observed value
CCn1c(SCC(=O)c2ccc3ccccc3c2)nnc1-c1cccs1	-8.29
COc1ccccc1C(CNC(=O)c1cccc(NS(=O)(=O)c2ccc(C)c(F)c2)c1)N1CCCC1 (stereo not drawn)	-40.9
Cc1ccc(Cl)cc1N1CCN(C(=O)C2CCN(S(=O)(=O)c3cccnc3)CC2)CC1	-46

// hERG current change (%, negative = inhibition) at 10uM lookup, molecule = COc1ccccc1C(CNC(=O)c1ccc(NS(=O)(=O)c2ccc(F)c(C)c2)cc1)N1CCCC1 (stereo not drawn) , result: -58.1

// hERG current change (%, negative = inhibition) at 10uM lookup, molecule = COc1ccc(C(O)P(=O)(OC2CCCCC2)c2ccc(N(C)C)cc2)cc1OC (stereo not drawn) , result: -7.44

// hERG current change (%, negative = inhibition) at 10uM lookup, molecule = O=C(C1CCN(S(=O)(=O)c2cccnc2)CC1)N1CCN(c2cccc(Cl)c2)CC1 , result: -31.5

###

Reported hERG current change (%, negative = inhibition) at 10uM values are given for each entry in this list.
Target: human ether-à-go-go-related gene (hERG) potassium channel (human, UniProt Q12809);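 further: peak tail current of the secondary pulse compared with the same well before compound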
Test: primary screen, population patch clamp on CHO cells stably expressing hERG; higher = less effect of the substance
Hit rate of the full screen: of about 310,000 compounds, about 14,000 (4.5%) showed an effect of 50% or more. Effects have a minus sign here. The list comes from a sample in which strong results are over-represented; it also holds close analogues and randomly drawn compounds.
Numbers only here, please. The scale is %.

compound	tgt	observed value
Cc1cccc(Cn2c(N3CCc4ccccc4C3)nc3c2c(=O)[nH]c(=O)n3C)c1	human ether-à-go-go-related gene (hERG) potassium channel (human, UniProt Q12809)	-4.89
Cc1ccc(C)c(CN2CCC(CNC(=O)Nc3ccc(Cl)cc3)CC2)c1	human ether-à-go-go-related gene (hERG) potassium channel (human, UniProt Q12809)	-68.6
Cc1cccc(Cn2c(N3CCCCC3C)nc3c2c(=O)[nH]c(=O)n3C)c1 (centres unmarked)	human ether-à-go-go-related gene (hERG) potassium channel (human, UniProt Q12809)	-57
O=C(c1ccc(Cl)cc1)N1CCC2(CC1)OCCO2	human ether-à-go-go-related gene (hERG) potassium channel (human, UniProt Q12809)	13.2
CC(O)C(O)C(O)C(O)C1NCCS1 (centres unmarked)	human ether-à-go-go-related gene (hERG) potassium channel (human, UniProt Q12809)	6.81
Cc1cccc(Cn2c(N3CCN(C)CC3)nc3c2c(=O)[nH]c(=O)n3C)c1	human ether-à-go-go-related gene (hERG) potassium channel (human, UniProt Q12809)	-50.7

// hERG current change (%, negative = inhibition) at 10uM lookup, compound = Cc1cccc(NC(=O)NCC2CC2)c1 , result: 4.74

// hERG current change (%, negative = inhibition) at 10uM lookup, compound = O=C1CC2(CCN(C(=O)c3cccc(F)c3)CC2)Oc2ccccc21 , result: -75.1

// hERG current change (%, negative = inhibition) at 10uM lookup, compound = CN1CCN(c2nc3c(c(=O)[nH]c(=O)n3C)n2Cc2ccc(Cl)cc2)CC1 , result: -15.5

// hERG current change (%, negative = inhibition) at 10uM lookup, compound = O=C1CC2(CCCC2)Oc2ccc(F)cc21 , result: -8.58

// hERG current change (%, negative = inhibition) at 10uM lookup, compound = CC12CCC(C(=O)Nc3ccccc3)(C/C1=N\O)C2(C)C (centres unmarked) , result: 10.9
